Entries annotated with measured protein stability index
B1: LRRC45 (parent)
chain: DLSAANEKNLLLQNQVDELERKFR

Variants of: B1
Protocol summary: protein stability index of a GFP-peptide fusion (GPS, HEK-293T) (PSI 1-6); higher = more stable;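 further: lentivirally expressed fusions sorted by FACS into six bins by GFP to DsRed ratio, PSI derived from sequencing read proportions per bin multiplied by bin number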
Experimental setup: c terminus: a fixed tail appended

{"columns": ["Mutation name", "protein stability index"],
 "data": [
  ["K8L", 3.6],
  ["E7I", 3.2],
  ["A5S", 4.39],
  ["D17L", 3.24],
  ["D17G", 3.46],
  ["Q13R", 3.74],
  ["L12F", 4.09],
  ["A4S", 4.05],
  ["A4R", 4.07],
  ["L10W", 3.89],
  ["L19D", 5.16]
]}
